System: rat model of hyperalgesia induced by carragenine
Test: Paw pressure test, hyperalgesia induced by carragenine
Assay type: in vivo
Conditions: 0.5 h, 30 min, 20 mg/Kg, read-out: Analgesia 30 min MPE
So basically: inhibition in vivo at 20 mg/kg at 30% or higher? That is True. Lower than 30%? That is False.

molecule: CCCCOC(=O)Cc1cc(-c2ccc(S(C)(=O)=O)cc2)n(-c2ccc(F)c(F)c2)c1C
group: True
//
molecule: COc1ccc(-n2c(-c3ccc(S(C)(=O)=O)cc3)cc(CC(=O)OC(C)C)c2C)cc1
group: True
//
molecule: Cc1ccc(-c2cc(C(F)(F)F)nn2-c2ccc(S(N)(=O)=O)cc2)cc1
group: True
//
molecule: Cc1c(CC(=O)OC(C)C)cc(-c2ccc(S(C)(=O)=O)cc2)n1-c1cccc(F)c1
group: True
//
molecule: Cc1c(CC(=O)OC(C)C)cc(-c2ccc(S(C)(=O)=O)cc2)n1-c1ccc(F)c(F)c1
group: True
//
molecule: CCOC(=O)Cc1cc(-c2ccc(S(C)(=O)=O)cc2)n(-c2cccc(F)c2)c1C [Compound 4b, reference compound]
group: False
//
molecule: CCOC(=O)Cc1cc(-c2ccc(S(C)(=O)=O)cc2)n(-c2ccccc2)c1C [Compound 1b, reference compound]
group: False
